Recorded measurements of switch fluorescence ratio, one per entry
Tested on: ATP;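 also: ATP exposure 15 min at 22 °C before imaging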
Assay name: switch fluorescence ratio, 500 uM ATP over buffer (Cy3 cluster intensity, sum of 5 cycles each) (fold (ratio)); higher = stronger signal-on switching upon ATP binding; sequences stand for … in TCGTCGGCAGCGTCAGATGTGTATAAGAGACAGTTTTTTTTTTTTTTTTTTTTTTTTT…TC
Assay conditions: aptamer strand: ATP DNA aptamer (quencher-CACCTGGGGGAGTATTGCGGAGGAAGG + anchor), 100 nM annealed; ATP concentration: 500 uM
Lab note: jot the number down without any unit.

Sequence | switch fluorescence ratio
CATTGAGTCG | 0.98
GACTGGCTGG | 1
TTTGTTTTGA | 1.02
CCTGGGGTTG | 1.05

-- ask // lookup switch fluorescence ratio | system=ATP | key= "CAGATGTGAC"
-- reply 1.06

* * *

Recorded measurements of switch fluorescence ratio, one per entry
Test system: ATP;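 also: ATP exposure 15 min at 22 °C before imaging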
Assay name: switch fluorescence ratio, 500 uM ATP over buffer (Cy3 cluster intensity, sum of 5 cycles each) (fold (ratio)); higher = stronger signal-on switching upon ATP binding; sequences stand for … in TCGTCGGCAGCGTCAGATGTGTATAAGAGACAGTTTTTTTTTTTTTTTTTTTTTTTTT…TC
Assay conditions: aptamer strand: ATP DNA aptamer (quencher-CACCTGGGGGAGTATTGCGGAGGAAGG + anchor), 100 nM annealed; ATP concentration: 500 uM
Lab note: jot the number down without any unit.

Solved cases below.
Sequence | Reported
GGCGTTGGGG | 1
CGCTCTTGTA | 0.991

-- ask // lookup switch fluorescence ratio | system=ATP | key= "TATAGATTGG"
-- reply 0.985

-- ask // lookup switch fluorescence ratio | system=ATP | key= "CACAAGTTTT"
-- reply 1.02

-- ask // lookup switch fluorescence ratio | system=ATP | key= "ATTTTAAGCG"
-- reply 1.01

-- ask // lookup switch fluorescence ratio | system=ATP | key= "AGGTGGCGTG"
-- reply 0.944

-- ask // lookup switch fluorescence ratio | system=ATP | key= "ATAGGAGGGT"
-- reply 0.989

-- ask // lookup switch fluorescence ratio | system=ATP | key= "TCACTCATAT"
-- reply 1.02

* * *

Tested on: ATP;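 also: ATP exposure 15 min at 22 °C before imaging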
Assay name: switch fluorescence ratio, 500 uM ATP over buffer (Cy3 cluster intensity, sum of 5 cycles each) (fold (ratio)); higher = stronger signal-on switching upon ATP binding; sequences stand for … in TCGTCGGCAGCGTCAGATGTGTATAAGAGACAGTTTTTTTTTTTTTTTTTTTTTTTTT…TC
Assay conditions: aptamer strand: ATP DNA aptamer (quencher-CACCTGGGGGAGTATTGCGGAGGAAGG + anchor), 100 nM annealed; ATP concentration: 500 uM
Assay readout: switch fluorescence ratio
Lab note: jot the number down without any unit.

Sequence | switch fluorescence ratio
GGGTGAACTC | 0.988
AATGATTAGT | 0.998
CATGGCTAGT | 1
TTGGTGTACT | 1.01

-- ask Consider the sequence shown here: "CCGTGGGATG" What is its recorded switch fluorescence ratio?
-- reply 0.986

-- ask Consider the sequence shown here: "ATTCGGGCTT" What is its recorded switch fluorescence ratio?
-- reply 0.976

-- ask Consider the sequence shown here: "AAAAAGTATG" What is its recorded switch fluorescence ratio?
-- reply 1

-- ask Consider the sequence shown here: "TTGTATCAGG" What is its recorded switch fluorescence ratio?
-- reply 1

* * *

Test system: ATP;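 also: ATP exposure 15 min at 22 °C before imaging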
Assay name: switch fluorescence ratio, 500 uM ATP over buffer (Cy3 cluster intensity, sum of 5 cycles each) (fold (ratio)); higher = stronger signal-on switching upon ATP binding; sequences stand for … in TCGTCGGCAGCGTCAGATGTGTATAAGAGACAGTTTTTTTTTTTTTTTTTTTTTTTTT…TC
Assay conditions: aptamer strand: ATP DNA aptamer (quencher-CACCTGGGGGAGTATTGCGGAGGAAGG + anchor), 100 nM annealed; ATP concentration: 500 uM
Recorded measurements of switch fluorescence ratio, one per entry
Lab note: jot the number down without any unit.

Solved cases below.
Sequence | Target or test system | switch fluorescence ratio
GGATTGGACT | ATP | 1
TAATGAGGTC | ATP | 0.99

-- ask Consider the sequence shown here: "TATGGCGGAG" What is its recorded switch fluorescence ratio?
-- reply 0.998

* * *

Recorded measurements of switch fluorescence ratio, one per entry
Tested on: ATP;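 also: ATP exposure 15 min at 22 °C before imaging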
Assay name: switch fluorescence ratio, 500 uM ATP over buffer (Cy3 cluster intensity, sum of 5 cycles each) (fold (ratio)); higher = stronger signal-on switching upon ATP binding; sequences stand for … in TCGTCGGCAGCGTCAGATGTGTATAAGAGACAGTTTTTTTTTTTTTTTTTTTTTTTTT…TC
Assay conditions: aptamer strand: ATP DNA aptamer (quencher-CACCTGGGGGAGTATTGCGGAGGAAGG + anchor), 100 nM annealed; ATP concentration: 500 uM

Solved cases below.
Sequence | switch fluorescence ratio
GGTTACAGTT | 1.04
CTATGTGGAG | 0.975
GGCAGTGTAC | 1.18

-- ask // lookup switch fluorescence ratio | system=ATP | key= "TTTGGAGATG"
-- reply 1.02

* * *

Test system: ATP;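 also: ATP exposure 15 min at 22 °C before imaging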
Assay name: switch fluorescence ratio, 500 uM ATP over buffer (Cy3 cluster intensity, sum of 5 cycles each) (fold (ratio)); higher = stronger signal-on switching upon ATP binding; sequences stand for … in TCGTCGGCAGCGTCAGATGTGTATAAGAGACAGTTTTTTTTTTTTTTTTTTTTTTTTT…TC
Assay conditions: aptamer strand: ATP DNA aptamer (quencher-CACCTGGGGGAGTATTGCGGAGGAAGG + anchor), 100 nM annealed; ATP concentration: 500 uM
Recorded measurements of switch fluorescence ratio, one per entry
Lab note: jot the number down without any unit.

Solved cases below.
Sequence | Target or test system | switch fluorescence ratio
AGTGGGAGAG | ATP | 1.02
GCCGTATGCT | ATP | 0.986
GAGTAGATGT | ATP | 0.983
TGATGTCCGT | ATP | 0.997
GGGGGGTAA | ATP | 1.01
TTAGGATGTA | ATP | 1.01

-- ask Consider the sequence shown here: "ATGGGTTTGG" What is its recorded switch fluorescence ratio?
-- reply 1.01

-- ask Consider the sequence shown here: "CGGATGGAGT" What is its recorded switch fluorescence ratio?
-- reply 0.991

* * *

Tested on: ATP;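 also: ATP exposure 15 min at 22 °C before imaging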
Assay name: switch fluorescence ratio, 500 uM ATP over buffer (Cy3 cluster intensity, sum of 5 cycles each) (fold (ratio)); higher = stronger signal-on switching upon ATP binding; sequences stand for … in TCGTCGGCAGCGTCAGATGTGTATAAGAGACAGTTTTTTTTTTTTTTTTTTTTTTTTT…TC
Assay conditions: aptamer strand: ATP DNA aptamer (quencher-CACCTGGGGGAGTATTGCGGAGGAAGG + anchor), 100 nM annealed; ATP concentration: 500 uM
Decide using switch fluorescence ratio: a value greater than or equal to 1 is met, a smaller one is not met.

The following sequences have reported results that may help.
Sequence | Qualitative label
AGGGTTATAA | not met
GCCGCCCTGG | met
GGGGCTAGTT | not met
GTGCCGGGGC | met

-- ask Is the recorded value of switch fluorescence ratio equal to or greater than 1 for this sequence? "AGCAGGGACT"
-- reply met

-- ask Is the recorded value of switch fluorescence ratio equal to or greater than 1 for this sequence? "CGTCACCGGG"
-- reply met

-- ask Is the recorded value of switch fluorescence ratio equal to or greater than 1 for this sequence? "GCAATTTTTT"
-- reply met

-- ask Is the recorded value of switch fluorescence ratio equal to or greater than 1 for this sequence? "TGACGGAGGC"
-- reply met

-- ask Is the recorded value of switch fluorescence ratio equal to or greater than 1 for this sequence? "GTAATACGTG"
-- reply met

-- ask Is the recorded value of switch fluorescence ratio equal to or greater than 1 for this sequence? "AAACGTAACG"
-- reply met

-- ask Is the recorded value of switch fluorescence ratio equal to or greater than 1 for this sequence? "ATAGTCCTGG"
-- reply not met

-- ask Is the recorded value of switch fluorescence ratio equal to or greater than 1 for this sequence? "TCTCTTGGGA"
-- reply met

-- ask Is the recorded value of switch fluorescence ratio equal to or greater than 1 for this sequence? "GGGTTCTTGT"
-- reply met

* * *

Test system: ATP;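 also: ATP exposure 15 min at 22 °C before imaging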
Assay name: switch fluorescence ratio, 500 uM ATP over buffer (Cy3 cluster intensity, sum of 5 cycles each) (fold (ratio)); higher = stronger signal-on switching upon ATP binding; sequences stand for … in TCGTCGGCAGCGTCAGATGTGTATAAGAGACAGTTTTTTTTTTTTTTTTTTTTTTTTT…TC
Assay conditions: aptamer strand: ATP DNA aptamer (quencher-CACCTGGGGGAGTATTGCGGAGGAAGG + anchor), 100 nM annealed; ATP concentration: 500 uM
Assay readout: switch fluorescence ratio
Lab note: jot the number down without any unit.

Sequence | switch fluorescence ratio
CTCGTTGAGG | 0.979

-- ask Consider the sequence shown here: "TATTGTCTAC" What is its recorded switch fluorescence ratio?
-- reply 0.99

-- ask Consider the sequence shown here: "GGGGGGGTCT" What is its recorded switch fluorescence ratio?
-- reply 0.973

-- ask Consider the sequence shown here: "AGTTCGGGGA" What is its recorded switch fluorescence ratio?
-- reply 0.992

-- ask Consider the sequence shown here: "AGGTTATGGT" What is its recorded switch fluorescence ratio?
-- reply 0.992

-- ask Consider the sequence shown here: "TGATCGGGTA" What is its recorded switch fluorescence ratio?
-- reply 1

-- ask Consider the sequence shown here: "CGATCTTGTT" What is its recorded switch fluorescence ratio?
-- reply 0.982
